Tested on: Hep G2 hepatocellular cancer cell line
Assay: MTT cytotoxicity assay, Hep G2 cells
Assay type: cell-based, Human
Settings: 4 days incubation, mean ± SD, triplicate, read-out: IC50 (μM) HepG2
readout.name: IC50
Express your answer as a number followed by its unit.

[ask] Recorded IC50 for N.N.[Cl][Pt][Cl] [cis-platin, reference compound] , please?
[reply] 13 µM

---

For each record, write down the corresponding IC50.
Test system: HeLa cervical cancer cell line
Assay: MTT cytotoxicity assay, HeLa cells
Assay type: cell-based, Human
Conditions: Homo sapiens, 96 h, 4 days incubation, mean ± SD, triplicate
Give bare numbers, in µM.

// solved cases for IC50 follow
C=C1C(=O)O[C@H]2[C@H]1[C@@H](O)[C@H](OC(=O)CC(C)C)[C@H](C)CCC(=O)[C@](C)(O)[C@@H]2OC(=O)C(C)C    29.4
C=C1C(=O)O[C@H]2[C@H]1[C@@H](O)[C@H](OC(=O)CC(C)C)[C@H](C)CCC(=O)[C@](C)(O)[C@@H]2OC(=O)CC(C)C [Compound 2, divarolide E]    16.8

[ask] // query IC50 value for entry C=C1C(=O)O[C@H]2[C@H]1[C@@H](O)[C@H](OC(=O)CC(C)C)[C@H](C)CCC(=O)[C@](C)(O)[C@@H]2OC(=O)C(C)CC (some centres unmarked)
[reply] 11.6

---

Could you please report measured IC50 for the items listed next?
Test system: A549 lung cancer cell line
Assay: MTT cytotoxicity assay, A549 cells
Type: cell-based, Human
Conditions: Homo sapiens, 96 h, 4 days incubation, mean ± SD, triplicate

Solved entries:
C=C1C(=O)O[C@H]2[C@H]1[C@@H](O)[C@H](OC(=O)CC(C)C)[C@H](C)CCC(=O)[C@](C)(O)[C@@H]2OC(=O)CC(C)C [Compound 2, divarolide E]    30.7 µM
C=C1C(=O)OC2C1C(O)C(OC(=O)C(C)CC)C(C)CCC(=O)C(C)(O)C2OC(=O)C(C)CC (centres unmarked) [Compound 4, divarolide G]    > 40 µM
C=C1C(=O)O[C@H]2[C@H]1[C@@H](O)[C@H](OC(=O)CC(C)C)[C@H](C)CCC(=O)[C@](C)(O)[C@@H]2OC(=O)C(C)C    > 40 µM
C=C(C)C(=O)O[C@H]1[C@H](O)[C@H]2C(=C)C(=O)O[C@@H]2[C@@H](OC(=O)C(C)C)[C@@](C)(O)C(=O)CC[C@H]1C [Compound 3, divarolide F]    > 40 µM

Then there is this molecule:
[ask] Fill in the recorded IC50 for this molecule, with A549 lung cancer cell line as test system: C=C1C(=O)O[C@H]2[C@H]1[C@@H](O)[C@H](OC(=O)CC(C)C)[C@H](C)CCC(=O)[C@](C)(O)[C@@H]2OC(=O)C(C)CC (some centres unmarked)
[reply] > 40 µM

---

Tested on: HeLa cervical cancer cell line
Experiment: MTT cytotoxicity assay, HeLa cells
Assay type: cell-based, Human
Conditions: 4 days incubation, mean ± SD, triplicate
Protocol: Cell cultures: Human A549, HepG2, and HeLa cell lines from Cancer Institute and Hospital of Chinese Academy of Medical Sciences (Beijing, China), were cultured in Dulbecco’s modified Eagle’s medium (DMEM, Gibco, CA, USA) supplemented with 10% (v/v) fetal calf serum (Gibco, CA, USA), penicillin G (Macgene, China) 100 units mL^−1 and streptomycin (Macgene, China) 100 μg mL^−1, at 37 °C under 5% CO2. […] Statistical analysis: Values were expressed as mean ± SD. […]
readout.name: IC50

[ask] May I ask what IC50 has been recorded for N.N.[Cl][Pt][Cl] [cis-platin, reference compound] ?
[reply] 15.3 µM
